Origin of values: patent EP2027081B1

Molecular target: human EP2 receptors (Homo sapiens)
Construct: expressed in transfected cells; host or cells: HEK 293
Sequence (P43116 whole entry): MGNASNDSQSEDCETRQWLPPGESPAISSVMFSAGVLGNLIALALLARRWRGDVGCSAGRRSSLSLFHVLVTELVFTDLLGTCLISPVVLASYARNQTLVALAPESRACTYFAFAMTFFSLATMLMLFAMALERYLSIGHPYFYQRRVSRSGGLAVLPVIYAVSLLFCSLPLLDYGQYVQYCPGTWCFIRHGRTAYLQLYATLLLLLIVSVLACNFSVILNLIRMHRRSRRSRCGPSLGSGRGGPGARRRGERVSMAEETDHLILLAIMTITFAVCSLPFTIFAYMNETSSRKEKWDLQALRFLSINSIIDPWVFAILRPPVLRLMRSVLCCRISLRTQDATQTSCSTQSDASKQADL
Assay: Competition binding, [3H]PGE2, HEK 293 cells stably expressing human EP2 receptors
Conditions: Table 3; read-out: BINDING (Ki, nM) HEP2
readout type: Ki (nM)
Field: numeric (nM). Do not append units.

Provide value of Ki for this record tested with human EP2 receptors (Homo sapiens): CCCCCC(O)c1ccc([C@H]2CCC(=O)[C@@H]2CCCCCCC(=O)O)cc1 (some centres unmarked)
871

Look up Ki with human EP2 receptors (Homo sapiens) for this compound: CCCCCC(O)c1ccc([C@H]2CCC(=O)[C@@H]2CCCCCCC(=O)OC)cc1 (some centres unmarked)
4680

---

Target: human EP2 receptors (Homo sapiens)
Construct: expressed in transfected cells; host or cells: HEK 293
Test: Competition binding, [3H]PGE2, HEK 293 cells stably expressing human EP2 receptors
Settings: Table 2; unit inferred; read-out: BINDING HEP2
readout type: log10(Ki) (log10 of the value in µM)
Short version: log10 scale, Ki, µM.

Value lookup for log10(Ki); key = CCCCCC(O)c1ccc([C@H]2CC[C@@H](F)[C@@H]2CCCCCCC(=O)O)cc1 (some centres unmarked)
-0.22

What log10(Ki) value was documented for this compound, CCCCC(O)Cc1ccc([C@H]2CCC(=O)[C@@H]2CCCCCCC(=O)O)cc1 (some centres unmarked) ?
-0.15

Would you kindly share the measured log10(Ki) for CCCCCC(O)c1ccc([C@H]2CCC(=O)[C@@H]2CCCCCCC(=O)O)s1 (some centres unmarked) ?
-0.22

log10(Ki) for CCCCC(O)Cc1ccc([C@H]2CCC(=O)[C@@H]2CCCCCCC(=O)OC)cc1 (some centres unmarked) ?
0.66

Quick one: log10(Ki) of CCCCCC(O)c1ccc([C@H]2CCC(=O)[C@@H]2C/C=C\CCCC(=O)O)cc1 (some centres unmarked) [drawing 97] ?
-0.15

Which log10(Ki) is listed for CCCCCC(O)c1ccc([C@H]2CCC(=O)[C@@H]2CCCCCCC(=O)OC)s1 (some centres unmarked) ?
0.85

So what does the record say about log10(Ki) for CCCCCC(O)c1ccc([C@H]2CCC=C2CCCCCCC(=O)O)cc1 (some centres unmarked) ?
0.45

Need log10(Ki) of CCCCC(O)c1ccc([C@H]2CCC(=O)[C@@H]2CCCCCCC(=O)O)cc1 (some centres unmarked) , thanks.
0.15

Consider the compound CCCCCC(O)c1ccc([C@H]2CC[C@@H](Cl)[C@@H]2CCCCCCC(=O)O)cc1 (some centres unmarked) and give its measured log10(Ki).
0.28

So what does the record say about log10(Ki) for CCCCC(O)c1ccc([C@H]2CCC(=O)[C@@H]2CCCCCCC(=O)OC)cc1 (some centres unmarked) ?
1.18

Name the recorded log10(Ki) for CCCCCC(O)c1ccc([C@H]2CCC(=O)[C@@H]2C/C=C\CCCC(=O)OC)cc1 (some centres unmarked) [drawing 96] .
1.18
